Target: Left-right determination factor 2 (Homo sapiens)
Experiment: LEFTY2 binders on small-molecule microarrays, primary screen, biochemical, small-molecule microarray, 635 nm fluorescence scan (AID 1110)
Conditions: LEFTY2 binding, higher = more signal
Rule: Satisfied for composite z-score not less than 0.5, Not satisfied for anything less.

[[record]]
compound = "CC1CC/C=C\\[C@H]2OC34C=CCN(C(C)C)C(=O)[C@H]3N(CCCO)C(=O)[C@@H]4C2C(=O)O1 (some centres undefined)"
class_name = "Not satisfied"

[[record]]
compound = "COC(=O)c1c(CC[C@@H](CO)NC(=O)N[C@H](Cc2ccccc2)Cn2cc(-c3ccccc3N)nn2)oc(C(C)=O)c1C(=O)OC"
class_name = "Not satisfied"

[[record]]
compound = "C=C(CCCC)C(=O)CC[C@@H](OC(C)=O)c1cccc(OCCO)c1"
class_name = "Not satisfied"

[[record]]
compound = "O=C1C[C@@H](O)[C@@H](O)[C@@H]2[C@@H]3C(=O)N(C4CCCCC4)C(=O)[C@@H]3CC[C@H]12"
class_name = "Not satisfied"

[[record]]
compound = "CCCNC(=O)OC[C@H]1O[C@H](CCON=C2[C@H]3CCn4c(=O)n(-c5ccccc5)c(=O)n4[C@H]3[C@H](O)[C@@H]3O[C@H]23)C=C[C@@H]1Oc1ccc(OC)cc1"
class_name = "Not satisfied"

[[record]]
compound = "C[C@@H](c1ccccc1)N1C(=O)[C@H]2[C@H]3[C@H](O)C=CC(=O)[C@@H]3CC[C@H]2C1=O"
class_name = "Satisfied"

[[record]]
compound = "O[C@@H](Cc1ccccc1)[C@H]1C2C=CCCC(c3ccccc3)=C2CN1Cc1cccc(Cl)c1 (some centres undefined)"
class_name = "Not satisfied"

[[record]]
compound = "CN1C(=O)C2C=CC(C(O)c3ccc(I)cc3)N(NC(=O)OC(C)(C)C)C2C1=O (centres undefined)"
class_name = "Not satisfied"

[[record]]
compound = "COCCOC(=O)N1C(=O)[C@@]2(c3cc(C#CC4(O)CCCCCC4)ccc31)[C@H](c1ccc(OCCO)cc1)N1[C@H](c3ccccc3)[C@H](c3ccccc3)OC(=O)[C@H]1[C@@H]2C(=O)NC[C@H](O)c1ccccc1"
class_name = "Not satisfied"

[[record]]
compound = "CCOC(=O)[C@H](Cc1ccccc1)NC(=O)CCC1CC(OC(=O)NCc2ccc3c(c2)OCO3)CC2(CCCC(COC(=O)NCc3cccc(C(F)(F)F)c3)O2)O1 (some centres undefined)"
class_name = "Not satisfied"

[[record]]
compound = "COc1ccc([Si](C)(C)[C@@H]2[C@@H](CCO)O[C@]3(C(=O)N(Cc4ccc(NC(C)=O)cc4)c4ccccc43)[C@H]2C)cc1"
class_name = "Satisfied"

[[record]]
compound = "CCOC(=O)CCN1C(=O)[C@H]2[C@H]3[C@H](O)[C@H](O)CC(=NOC[C@@H](O)COCc4ccco4)[C@H]3CC[C@H]2C1=O"
class_name = "Satisfied"

[[record]]
compound = "CCOC(=O)NN=C1C[C@@H](O)[C@@H](O)[C@@H]2[C@@H]3C(=O)N(C4CCCCC4)C(=O)[C@@H]3CC[C@@H]12"
class_name = "Not satisfied"

[[record]]
compound = "CC(C)(C)N1CC=CC23O[C@@H]4C=CCCOC(=O)C4[C@H]2C(=O)N(CCCCCO)[C@@H]3C1=O (some centres undefined)"
class_name = "Not satisfied"

[[record]]
compound = "CCN(CC)c1ccc(N2CC=CC34O[C@@H]5/C=C\\CCC(C)OC(=O)C5[C@H]3C(=O)N(CCCO)[C@@H]4C2=O)cc1 (some centres undefined)"
class_name = "Not satisfied"

[[record]]
compound = "COC(=O)[C@H](C)NC(=O)CCC1CC(OC(=O)NCCc2ccc(F)cc2)CC2(CCCC(COC(=O)NCCc3ccc(Cl)cc3)O2)O1 (some centres undefined)"
class_name = "Satisfied"

[[record]]
compound = "CC(C)NC(=O)[C@@]1(c2ccc([N+](=O)[O-])cc2)CC(=O)N(CC23CC4CC(CC(C4)C2)C3)[C@@H]1c1ccc(CO)cc1I"
class_name = "Not satisfied"

[[record]]
compound = "C[C@@H]1CCC2C(=O)N(Cc3ccccc3)C[C@@H](O)CN2[C@H]1c1ccc(Br)cc1 (some centres undefined)"
class_name = "Not satisfied"

[[record]]
compound = "CCOC(=O)NN=C1C[C@@H](O)[C@@H](O)[C@@H]2[C@@H]3C(=O)N(C(C)(C)C)C(=O)[C@@H]3CC[C@@H]12"
class_name = "Not satisfied"

[[record]]
compound = "CC(C)CON=C1C[C@@H](O)[C@@H](O)[C@@H]2[C@@H]3C(=O)N([C@@H](C)c4ccccc4)C(=O)[C@@H]3CC[C@H]12"
class_name = "Satisfied"

[[record]]
compound = "O=C1[C@H]2[C@H]3[C@H](O)[C@H](O)CC(=NOC[C@@H](O)COCc4ccco4)[C@H]3CC[C@H]2C(=O)N1C1CCCCC1"
class_name = "Satisfied"

[[record]]
compound = "O=C1[C@H]2[C@H]3[C@H](O)[C@H](O)CC(=NO[C@@H]4O[C@H](CO)[C@@H](O)[C@H](O)[C@H]4O)[C@@H]3CC[C@H]2C(=O)N1c1ccc(F)cc1F"
class_name = "Not satisfied"

[[record]]
compound = "CCCNC(=O)OC[C@H]1O[C@H](CCON=C[C@@H](OC)[C@H](C)C=CCC(=O)OC)C=C[C@@H]1Oc1ccc(OC)cc1"
class_name = "Not satisfied"

[[record]]
compound = "C[C@H]1Cc2c(-c3ccccc3)nc3c(c2CO1)CN(CCOc1ccccc1)CC3"
class_name = "Satisfied"

[[record]]
compound = "Cn1cccc1C(O)C1C=CC2C(=O)NC(=O)C2N1Nc1ccccn1 (centres undefined)"
class_name = "Not satisfied"

[[record]]
compound = "CC(=O)OC[C@H]1O[C@H](CCON=C(C)CCC(=O)OC[C@H]2O[C@H](C#Cc3ccccc3)C=C[C@@H]2Oc2ccc(C)cc2)C=C[C@@H]1OC(C)=O"
class_name = "Satisfied"

[[record]]
compound = "[N-]=[N+]=NCc1ccccc1C[C@]1(C(=O)NCc2ccccc2)N=C(c2ccc(OCCCO)cc2)O[C@H]1c1ccccc1N=[N+]=[N-]"
class_name = "Not satisfied"

[[record]]
compound = "COc1cccc([C@H]2Oc3ccc(OC)cc3C(=NOC(C)CN3CCCc4nc(C)c(C)cc43)[C@@H]2O)c1 (some centres undefined)"
class_name = "Not satisfied"

[[record]]
compound = "CC(CCN1CCc2nc(-c3ccccc3)c(-c3ccccc3)cc2C1)=NO[C@@H](C)c1cn([C@H](CO)Cc2ccccc2)nn1"
class_name = "Satisfied"


* * *

Assay: basal 3T3-L1 adipocyte mitochondrial potential changes, profiling panel, cell-based, JC-1 fluorescence, 3T3-L1 adipocytes, 24 h, 100 nL compound (AID 1168); note: test concentration not given here
Details: JC-1 mitochondrial fluorescence, higher = more signal, called active from +8 up or from −8 down
measured_quantity: z-score

[[record]]
molecule = "N#Cc1ccc(NN2C(C(O)c3cccc4ccccc34)C=CC3C(=O)N(c4ccccc4)C(=O)C32)cc1 (centres undefined)"
reported_result = 0.226

[[record]]
molecule = "CO[C@H]1COC(=O)[C@@H]2CCCN2C(=O)[C@@H](C)COC(=O)CC=C[C@@H]1C"
reported_result = -0.418

[[record]]
molecule = "CCOC(=O)CCN1C(=O)[C@H]2[C@H]3[C@H](O)[C@H](O)CC(=NNC(=O)OCc4ccc(OC)cc4)[C@@H]3CC[C@H]2C1=O"
reported_result = -0.0296

[[record]]
molecule = "O=C1O[C@@H](c2ccccc2)[C@@H](c2ccccc2)N2[C@@H](c3ccc(OCCO)cc3)[C@]3(C(=O)Nc4ccccc43)[C@@H](C(=O)N3CCN(c4ncccn4)CC3)[C@H]12"
reported_result = 0.339


* * *

System: Wnt5a (protein binding on small-molecule microarray)
Assay: Wnt5a binders on small-molecule microarray, primary screen, biophysical, 635/667 nm fluorescence (AID 1142);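 note: fluorescence read at 667 nm with signal to noise per printed feature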
Details: 635 nm fluorescence, higher = more signal
measured_quantity: composite z-score

[[record]]
smiles_record = "CCOC(=O)NN=C1C[C@@H](O)[C@@H](O)[C@@H]2[C@@H]3C(=O)N(C(C)(C)C)C(=O)[C@@H]3CC[C@@H]12"
reported_result = -0.263

[[record]]
smiles_record = "O=C1[C@H]2[C@H]3[C@H](O)[C@H](O)CC(=NO[C@@H]4O[C@H](CO)[C@@H](O)[C@H](O)[C@H]4O)[C@@H]3CC[C@H]2C(=O)N1Cc1ccc2c(c1)OCO2"
reported_result = 0.163

[[record]]
smiles_record = "COCCOC(=O)N1C(=O)[C@@]2(c3cc(C#CC4(O)CCCCCC4)ccc31)[C@H](c1ccc(OCCO)cc1)N1[C@H](c3ccccc3)[C@H](c3ccccc3)OC(=O)[C@H]1[C@@H]2C(=O)NC[C@H](O)c1ccccc1"
reported_result = 0.524

[[record]]
smiles_record = "COc1ccc(O[C@H]2C=C[C@@H](c3ccccc3)O[C@@H]2COC(=O)CCC(C)=NOC[C@@H](C)[C@H](OCc2ccccc2)C(C)C)cc1"
reported_result = -0.348

[[record]]
smiles_record = "O=C1C[C@]2(c3ccc([N+](=O)[O-])cc3)C(=O)N(CCN3CCOCC3)c3cc(CO)ccc3[C@H]2N1CC12CC3CC(CC(C3)C1)C2"
reported_result = -0.433

[[record]]
smiles_record = "CO[C@@H]1COC(=O)CC=C[C@@H](C)[C@H](OC)COC(=O)[C@H](COCc2ccccc2)NC(=O)CC=C[C@H]1C"
reported_result = -0.0092

